- test target: DPA10103-DPB10401 (Homo sapiens, UniProt P04440+P20036)
- protocol summary: Competitive MHC class II binding assay, DPA10103-DPB10401
No end group written: not given here.
measured endpoint: IC50

Summary for this sequence, ESAYLAYRNQSLDLAE [pep-009] : IC50 is < 1000 nM

Record DNGYGYFAANIDLMMIEE [pep-010] . Reported IC50: < 1000 nM

Given item IEYIQHNGVVQESYYRYVAR [pep-049] , the value recorded as its IC50 is < 1000 nM

---

Exercise: state measured IC50 for each of the sequences provided.
- test target: DPA10201-DPB11401
- protocol summary: Competitive MHC class II binding assay, DPA10201-DPB11401
- assay setup: read-out: HLA-DPA10201-DPB11401; positive binding at cutoff 1000 nM
No end group written: not given here.

GET /value?item= QQYDIKYTWNVPKIA [pep-031] &field=IC50 returns < 1000 nM

# sequence LVGDNGVLASAIATHAKIRD [pep-110] ; its IC50 = < 1000 nM

---

- protocol summary: Solubility of peptides in aqueous solutions at different pH (visual inspection, OD, HPLC)
- Assay type: physicochemical
- assay setup: pH 7, visual inspection
No end group written: not given here.
measured endpoint: Solubility at pH 7 (visual inspection)

Examples with their reported Solubility at pH 7 (visual inspection) follow.
RRRRHAVNIVGYSNAQGVDYWIVR [Peptide 132]; Slight turbid
RRHAVNIVGYSNAQGVDYWIVRRR [Peptide 133]; Clear
RHAVNIVGYSNAQGVDYWIVRR [Peptide 137]; Clear
RIEYIQQNGVVEERSYPYVAR [Peptide 139]; Clear
RRIEYIQQNGVVEERSYPYVARRR [Peptide 142]; Clear

Solubility at pH 7 (visual inspection) reading for RRHAVNIVGYSNAQGVDYWIVRR [Peptide 138] : Slight turbid

---

- test target: DPA10103-DPB10402 (Homo sapiens, UniProt P04440+P20036, A65V/A84D/A85E/L207M)
- Sequence (P20036 29-260): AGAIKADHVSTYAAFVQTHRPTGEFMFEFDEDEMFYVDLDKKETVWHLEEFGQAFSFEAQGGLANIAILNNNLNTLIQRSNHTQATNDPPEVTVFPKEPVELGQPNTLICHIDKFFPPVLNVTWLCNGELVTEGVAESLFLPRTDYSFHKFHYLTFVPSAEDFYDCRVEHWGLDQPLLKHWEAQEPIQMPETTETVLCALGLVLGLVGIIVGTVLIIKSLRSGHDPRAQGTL
- Sequence (P04440 30-258 A65V/A84D/A85E): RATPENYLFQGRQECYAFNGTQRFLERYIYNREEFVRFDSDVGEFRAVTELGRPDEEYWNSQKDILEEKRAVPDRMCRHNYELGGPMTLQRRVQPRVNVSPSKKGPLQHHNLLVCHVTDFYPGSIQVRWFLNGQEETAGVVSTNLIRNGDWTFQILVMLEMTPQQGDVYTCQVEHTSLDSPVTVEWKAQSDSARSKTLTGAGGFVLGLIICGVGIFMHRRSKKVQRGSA
- protocol summary: Competitive MHC class II binding assay, DPA10103-DPB10402
pIC50: −log10 of the molar value. No end group written: not given here.
measured endpoint: pIC50

# pIC50 (sequence: NGYGYFAANIDLMM [pep-011] ) is > 6.00

sequence GSGSSWAFSGVAATESAYLA [pep-044] , pIC50 observed: > 6.00

Entry DNGYGYFAANIDLMMIEE [pep-010] — recorded pIC50 = > 6.00

The measured pIC50 associated with NYSQIYPPNVNKIREA [HDM101A, reference compound] reads > 6.00

---

- test target: DPA10103-DPB10301 (Homo sapiens, UniProt P04440+P20036, A65V/A84D/A85E/E86D/F38Y/G113D/G114E/G40L/I94L/L37V/M105V/M116V/P115A/R125K/T199I)
- protocol summary: Competitive MHC class II binding assay, DPA10103-DPB10301
No end group written: not given here.
Kindly supply the reported IC50 values for the records listed here.

Memo: KGQQYDIKYTWNVPKIA [pep-126] , reported IC50: < 1 µM

The recorded IC50 for DLRQMRTVTPIRMQGGSGS [HDM203B, reference compound] is < 1 µM

// IC50 value for VQESYYRYVAREQSSRRPNAQ [pep-124] : < 1 µM

Briefly, IC50 measured for QESYYRYVAREQSSRR [pep-122] : < 1 µM

Query HAVNIVGYSNAQGVDYWIVR [pep-058] yields IC50 of < 1 µM

IC50 recorded for this sequence, QESYYRYVAREQSSRRPNAQ [pep-050] , is < 1 µM

Per the record, GSGSSWAFSGVAATESAYLA [pep-044] has IC50 of < 1 µM

Measured IC50, LVKGQQYDIKYTWNVPKIAPK [pep-131] : < 1 µM
